# Test system: ATP;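 further: ATP exposure 15 min at 22 °C before imaging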
# procedure_text: switch fluorescence ratio, 500 uM ATP over buffer (Cy3 cluster intensity, sum of 5 cycles each) (fold (ratio)); higher = stronger signal-on switching upon ATP binding; sequences stand for … in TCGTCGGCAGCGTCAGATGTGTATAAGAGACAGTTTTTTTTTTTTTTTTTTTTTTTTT…TC
# setup_conditions: aptamer strand: ATP DNA aptamer (quencher-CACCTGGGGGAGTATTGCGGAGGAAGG + anchor), 100 nM annealed; ATP concentration: 500 uM
Catalogue of sequences with associated switch fluorescence ratio
Output: the number by itself.

TCAGTGACGT
0.983

Query: # switch fluorescence ratio lookup, item TTCTAGGCGG
Result: 1.03
